Data origin: ChEMBL document CHEMBL1157539

System: Plasmodium falciparum
Assay: GSK_TCMDC: Inhibition of Plasmodium falciparum 3D7 in whole erythrocytes, using parasite LDH activity as an index of growth.
Format: functional, organism-based
Settings: Plasmodium falciparum, 3D7
Property Measured: XC50 (nM)

>  <Molecule>
O=C(Nc1ccc(-c2csc(-c3nc4ccccc4[nH]3)c2)cc1)Nc1ccc(F)c(F)c1F

>  <Experimental Target>
Plasmodium falciparum

>  <Measured Number>
330

$$$$
>  <Molecule>
COc1ccccc1CN1CCC(CNC(=O)c2cc(-c3cccc(C(F)(F)F)c3)cs2)C1 (stereo not given)

>  <Experimental Target>
Plasmodium falciparum

>  <Measured Number>
1310

$$$$
>  <Molecule>
O=C(COc1ccc(Cl)c(Cl)c1)NCCCCCN1CCCN(C(=O)Nc2ccc(Cl)c(Cl)c2)CC1

>  <Experimental Target>
Plasmodium falciparum

>  <Measured Number>
1730

$$$$
>  <Molecule>
CCCC[C@@H](C(=O)NCCc1ccc(Cl)cc1)N1C(=O)CCC1C(=O)Nc1ccc(Cl)c(Cl)c1 (stereo not given in full)

>  <Experimental Target>
Plasmodium falciparum

>  <Measured Number>
873

$$$$
>  <Molecule>
CCNc1cc(C(=O)N[C@@H](Cc2ccccc2)[C@H](O)CNC2C3CC4CC(C3)CC2C4)cc(N2CCCCS2(=O)=O)c1 (stereo not given in full)

>  <Experimental Target>
Plasmodium falciparum

>  <Measured Number>
668

$$$$
>  <Molecule>
Cc1cccc(CNc2nccc3[nH]c4ccccc4c23)c1

>  <Experimental Target>
Plasmodium falciparum

>  <Measured Number>
1900

$$$$
>  <Molecule>
O=C(Nc1ccc(F)c(F)c1)c1ccc(CN2CCCN(Cc3cccc(F)c3)CC2)cc1

>  <Experimental Target>
Plasmodium falciparum

>  <Measured Number>
1120

$$$$
>  <Molecule>
CCCc1ccc(NC(=O)c2ccc(CN3CCCN(Cc4cccc(O)c4)CC3)cc2)cc1

>  <Experimental Target>
Plasmodium falciparum

>  <Measured Number>
396

$$$$
>  <Molecule>
Oc1ccc2[nH]cc(C3=CCN(Cc4ccccc4)CC3)c2c1

>  <Experimental Target>
Plasmodium falciparum

>  <Measured Number>
983

$$$$
>  <Molecule>
CCCOc1cc(Cc2cnc(N)nc2N)cc(OC)c1OC

>  <Experimental Target>
Plasmodium falciparum

>  <Measured Number>
1170

$$$$
>  <Molecule>
CN1CC=C(c2c[nH]c3ccc(Br)cc23)CC1

>  <Experimental Target>
Plasmodium falciparum

>  <Measured Number>
1190

$$$$
>  <Molecule>
c1ccc(CN2CCC(NCc3ccccc3-c3ccc(CNCc4ccc5c(c4)OCO5)cc3)CC2)cc1

>  <Experimental Target>
Plasmodium falciparum

>  <Measured Number>
326

$$$$
>  <Molecule>
Cn1nc(-c2ccc(CNC3CCc4ccccc43)cc2)c2cnc(NCCCN3CCCC3)nc21 (stereo not given)

>  <Experimental Target>
Plasmodium falciparum

>  <Measured Number>
1110

$$$$
>  <Molecule>
CN1CCc2cc(NS(=O)(=O)c3ccc(-c4ccc(Cl)s4)cc3)c(N3CCCCC3)cc2CC1

>  <Experimental Target>
Plasmodium falciparum

>  <Measured Number>
727

$$$$
>  <Molecule>
COc1cccc(Nc2nc(C)cc(NCc3ccc(-n4ccnc4)cc3)n2)c1

>  <Experimental Target>
Plasmodium falciparum

>  <Measured Number>
958

$$$$
>  <Molecule>
CN1CCN(c2ccc(-c3cccc(NC(=O)c4ccc5ccccc5c4)c3)nn2)CC1

>  <Experimental Target>
Plasmodium falciparum

>  <Measured Number>
383

$$$$
>  <Molecule>
O=C(Nc1cccc(CN2CCCN(Cc3cccc(O)c3)CC2)c1)c1cc2ccccc2s1

>  <Experimental Target>
Plasmodium falciparum

>  <Measured Number>
365

$$$$
>  <Molecule>
NC1CCCN(Cc2ccc(-c3ccc(-c4nc5ccccc5[nH]4)s3)cc2)C1 (stereo not given)

>  <Experimental Target>
Plasmodium falciparum

>  <Measured Number>
672

$$$$
>  <Molecule>
CSc1ccc(C[C@@H](C)NC[C@H](O)c2cccc(Cl)c2)cc1

>  <Experimental Target>
Plasmodium falciparum

>  <Measured Number>
940

$$$$
>  <Molecule>
O=c1cc(N2CCCNCC2)c(Cl)nn1Cc1ccc(NS(=O)(=O)c2ccc(Oc3ccccc3)cc2)cc1

>  <Experimental Target>
Plasmodium falciparum

>  <Measured Number>
800

$$$$
